- Test Description: chemical genetic growth profiling, strain panel (AID 1159580);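 further: tested at 20 µM; growth read once vehicle control cultures reached saturation at 30 °C; 1 = growth at the plate median or of vehicle wells; lower values mean less growth of the strain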
- Condition Description: S. cerevisiae deletion strains, growth OD, locus YOR080W, strain dia2, hits give low values
Among all 5,500 compounds or so, about 2,000 (36%) were called active. Inconclusive results (about 18%) are left out. The list shows a part of the results.
Quantity: normalized growth
One number for each entry.

Consider the following illustrative entries.
[[record]]
compound = "CS(=O)(=O)CCCCN=C=S"
observed_measurement = 0.966

[[record]]
compound = "C=CC(C1=CC(=O)C(OC)=CC1=O)c1ccc(OC)cc1 (stereo unspecified)"
observed_measurement = 1

[[record]]
compound = "Cc1c(O)c(O)cc2c1CC=C1[C@@]2(C)CC[C@@]2(C)C3C[C@](C)(C(=O)O)CC[C@]3(C)CC[C@]12C (stereo partly specified)"
observed_measurement = 0.697

[[record]]
compound = "O=C(O)C1=CCNCC1"
observed_measurement = 1.03

[[record]]
compound = "CC(C)(C)NC[C@@H](O)COc1nsnc1N1CCOCC1"
observed_measurement = 1.02


Here are 7 compounds. What values of normalized growth were reported for them?
1. CCN(CC)CCOc1ccc2c(c1)C(=O)c1cc(OCCN(CC)CC)ccc1-2
2. O=C(O)c1ccccc1Nc1cccc(C(F)(F)F)c1
3. Cc1ccc(/C(=C\CN2CCCC2)c2ccccn2)cc1
4. OC[C@@H](O)[C@@H](O[C@@H]1O[C@H](CO)[C@@H](O)[C@H](O)[C@H]1O)[C@H](O)[C@@H](O)CO
5. OC[C@@H]1CCCN2CCCC[C@H]12
6. CN(C)CCOc1ccc(/C(=C(/CCCl)c2ccccc2)c2ccccc2)cc1
7. COc1ccc(C(Cl)=C(c2ccc(OC)cc2)c2ccc(OC)cc2)cc1

Return:
[0.983, 0.847, 1.02, 0.995, 1.03, 0.0814, 0.995]

Attribution: PubChem BioAssay AID1159580
